# credit: the supplement of paper PMC12338614

B1: library; numbered along this chain (parent)
chain: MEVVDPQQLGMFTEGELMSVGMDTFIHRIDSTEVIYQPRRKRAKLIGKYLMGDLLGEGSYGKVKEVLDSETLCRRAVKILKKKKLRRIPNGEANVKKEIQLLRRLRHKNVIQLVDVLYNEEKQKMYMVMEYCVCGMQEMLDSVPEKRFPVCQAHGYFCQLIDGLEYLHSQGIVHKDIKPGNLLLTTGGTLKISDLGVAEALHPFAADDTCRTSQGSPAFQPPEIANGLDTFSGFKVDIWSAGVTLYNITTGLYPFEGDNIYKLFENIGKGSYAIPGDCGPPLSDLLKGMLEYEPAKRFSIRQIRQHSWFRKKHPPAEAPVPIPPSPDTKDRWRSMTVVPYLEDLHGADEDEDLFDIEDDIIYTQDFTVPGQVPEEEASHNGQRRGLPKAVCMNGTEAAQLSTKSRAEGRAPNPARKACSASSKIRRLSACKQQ

Variants of: B1
Assay text: STK11 functional score (HeLa growth suppression), rescaled enrichment; synonymous median = 1, nonsense median = 0 (normalised score)
Measurement context: with HeLa; variant type: missense
STK11 functional score reference

Mutations	STK11 functional score
V337R	0.662
N380G	1.57
S419V	0.892
M127P	0.82
G385K	1.6
K269H	1.49
K312E	0.874
P281D	1.45
G171W	1.53
L190F	0.343
P144R	0.996
